experimental-protocol: ATG_GATA_CIS: Attagene CIS-FACTORIAL HepG2 Assay for human GATA Binding Protein (AID 2282944)
particulars: HepG2 GATA cis-element reporter, Attagene multiplex mRNA; actives raise or lower the signal
Calls of active or inactive are those of the source. How the source made its calls: active means hit-call score of the fitted dose curve at least 0.9, where 1 is the maximum; inactive means score below 0.9.
Form entry, call: pick from active, inactive

Per the assay record, what outcome was assigned to CCOC(=O)C1=NN(c2ccc(Cl)cc2Cl)C(C)(C(=O)OCC)C1 (stereo unspecified) ?
inactive

Per the assay record, what outcome was assigned to CCNc1nc(NC(C)(C)C)nc(OC)n1 ?
inactive

Per the assay record, what outcome was assigned to CCCCCCOC(=O)CCCCC(=O)OCCCCCC ?
inactive

Per the assay record, what outcome was assigned to CC(C)(C)C1CCC(=O)CC1 ?
inactive

Per the assay record, what outcome was assigned to CN(C)c1ccc2nc3ccc(=[N+](C)C)cc-3sc2c1 ?
inactive

Per the assay record, what outcome was assigned to CCOc1ccc(NC(N)=O)cc1 ?
inactive

Per the assay record, what outcome was assigned to CCCC(CC)c1ccccc1 (stereo unspecified) ?
inactive

Per the assay record, what outcome was assigned to CCc1occc(=O)c1O ?
inactive

Per the assay record, what outcome was assigned to CC1(C)C(=O)N(CO)C(=O)N1CO ?
inactive

Per the assay record, what outcome was assigned to CCC1COC(=O)O1 (stereo unspecified) ?
inactive

Per the assay record, what outcome was assigned to Cc1c(O)cccc1O ?
inactive

Per the assay record, what outcome was assigned to CCC(C)C(=O)OC (stereo unspecified) ?
inactive

Per the assay record, what outcome was assigned to CC1OC(=O)C(C)OC1=O (stereo unspecified) ?
inactive

Per the assay record, what outcome was assigned to Cc1cc(C)n(CO)n1 ?
inactive

Per the assay record, what outcome was assigned to CC(C)C(=O)OCCOc1ccccc1 ?
inactive

---

target-entity: Cellular tumor antigen p53 (Homo sapiens) (UniProt P04637)
Sequence (P04637 whole entry, looked up): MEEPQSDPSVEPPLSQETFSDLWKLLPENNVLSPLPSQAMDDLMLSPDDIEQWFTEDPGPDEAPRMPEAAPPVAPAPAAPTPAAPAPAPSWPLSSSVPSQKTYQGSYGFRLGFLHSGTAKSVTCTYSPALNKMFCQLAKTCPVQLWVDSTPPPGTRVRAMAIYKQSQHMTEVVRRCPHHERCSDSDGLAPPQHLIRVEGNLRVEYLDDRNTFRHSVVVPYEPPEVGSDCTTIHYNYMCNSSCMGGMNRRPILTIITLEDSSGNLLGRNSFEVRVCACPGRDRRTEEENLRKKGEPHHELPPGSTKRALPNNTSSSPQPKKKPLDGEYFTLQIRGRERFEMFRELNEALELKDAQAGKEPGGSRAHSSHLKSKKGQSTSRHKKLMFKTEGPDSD
experimental-protocol: TOX21_p53_BLA_p3_ratio: Tox21 HCT-116 p53 Agonism Beta-lactamase Assay, Ratio, Phase 3 (AID 2283596)
Results filed as inconclusive are left out. Activity calls are given as the source filed them. How the source made its calls: active means hit-call score of the fitted dose curve at least 0.9, where 1 is the maximum; inconclusive means response in the unintended direction; inactive means score below 0.9.
Form entry, call: pick from active, inactive

Solved cases below.
compound: c1ccc(Nc2cccc3ccccc23)cc1
target-entity: Cellular tumor antigen p53 (Homo sapiens) (UniProt P04637)
classification: inactive
--
compound: CCCCCCCCCCCCCCCCCCOS(=O)(=O)O
target-entity: Cellular tumor antigen p53 (Homo sapiens) (UniProt P04637)
classification: active
--
compound: CCCCCOC(=O)CCCCC
target-entity: Cellular tumor antigen p53 (Homo sapiens) (UniProt P04637)
classification: inactive
--
compound: CC(=O)OCC=C(C)C
target-entity: Cellular tumor antigen p53 (Homo sapiens) (UniProt P04637)
classification: inactive
--
compound: CCCCCCCCCCCCC
target-entity: Cellular tumor antigen p53 (Homo sapiens) (UniProt P04637)
classification: inactive

Per the assay record, what outcome was assigned to CC(=O)OC/C=C(/C)CCC=C(C)C ?
inactive

Per the assay record, what outcome was assigned to CC(=O)c1ccccc1O ?
inactive

Per the assay record, what outcome was assigned to O=C(O)CCCC(=O)O ?
inactive

---

target-entity: mouse Estrogen Receptor alpha (Era), Esr1 (gene 13982)
experimental-protocol: NVS_NR_mERa: NovaScreen (NVS) Nuclear Receptor Binding Assay for mouse Estrogen Receptor alpha (Era) (AID 2283378);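 further: hit means loss of bound radioligand signal relative to DMSO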
Inconclusive results are not listed. Calls of active or inactive are those of the source. Rule for the calls: active = hit-call score of the fitted dose curve at least 0.9, where 1 is the maximum; inconclusive = response in the unintended direction; inactive = score below 0.9.
assay-endpoint: AC50

compound: C=C1C[C@H]2[C@@H]3C=C(C)C4=CC(=O)CC[C@]4(C)[C@H]3CC[C@]2(C)[C@@]1(OC(C)=O)C(C)=O
AC50: 29.2 µM (active)
//
compound: CCCCCCCOC(=O)c1ccc(O)cc1
AC50: inactive
//
compound: CCCCC/C=C\C/C=C\CCCCCCCC(=O)O
AC50: 35.8 µM (active)
//
compound: C[Si](C)(C)N[Si](C)(C)C
AC50: inactive
//
compound: O=c1c(O)c(-c2ccc(O)cc2O)oc2cc(O)cc(O)c12
AC50: inactive
//
compound: CO[Si](C)(C)OC
AC50: inactive

// for each compound in input: emit AC50
1. N#Cc1ccc(C2CCCc3cncn32)cc1 (centres undefined)
2. CC(C)=CCCC(C)=CC#N
3. C=C[Si](OCCOC)(OCCOC)OCCOC

1. inactive
2. inactive
3. 10.5 µM (active)

The measured values listed here are drawn from PubChem BioAssay (EPA / NIEHS).
